Measured values drawn from PubChem BioAssay AID504660 for this set.

- ASSAY SYSTEM: D(1A) dopamine receptor (Homo sapiens)
- ASSAY: Allosteric Agonists of the Human D1 Dopamine Receptor: qHTS; note: 0% is about no effect
- CONDITION LABEL: HEK293 T-REx D1 cells, calcium flux, agonist mode; at 2 µM; active compounds read high
The campaign covered roughly 360,000 compounds. About 3,700 (1%) were called active. The full list was thinned out, with actives kept by preference.
QUANTITY MEASURED: activation (%)
Form entry: value (%) — number only.

Prompt: # value lookup — system D(1A) dopamine receptor (Homo sapiens), readout activation, item CCc1ccc(S(=O)(=O)Nc2cc3c(C(=O)OCc4ccccc4)c(C)oc3c3ccccc23)cc1
Completion: 5.87

Prompt: # value lookup — system D(1A) dopamine receptor (Homo sapiens), readout activation, item CN(C)CCCNC(=S)N1CCN(c2nc(-c3ccccc3)cs2)CC1
Completion: 32.3

Prompt: # value lookup — system D(1A) dopamine receptor (Homo sapiens), readout activation, item CCCCCOC(=O)c1ccc(N2C(=O)C3C4C=CC(C4)C3C2=O)cc1 (configuration not stated)
Completion: 19.5

Prompt: # value lookup — system D(1A) dopamine receptor (Homo sapiens), readout activation, item COc1ccc(-c2nc(CN3CCC(C(=O)NCc4ccccc4)CC3)c(C)o2)cc1OC
Completion: -1.51

Prompt: # value lookup — system D(1A) dopamine receptor (Homo sapiens), readout activation, item O=C1CCCc2cc(S(=O)(=O)N3CCCC(C(=O)NCc4ccccc4)C3)ccc2N1 (configuration not stated)
Completion: 1.11
